Data origin, for the record: patent US20210292393A1

# SUBJECT_OF_TEST: SARS-CoV-2 full length spike protein (wild type), conjugated to beads (SARS-CoV-2, UniProt P0DTC2 14-1208)

>  <BINDER>
antibody 395 (antibody, V domains shown) VH: QVQLVQSGSELKKPGASVKLSCQASGYTFSNHAMNWVRQAPGQGLEWMGWINTNTGNPTYAQGFTGRFVFSLDTSVGTAYLHISSLKAEDTAFYYCARASARPGVATNLDFWGQGTLVVVSS VL: DIQMTQSPSSLSASVGDRVTITCRTSQNIDNYLNWYQQKPGKAPNLLIYAASRLHSGVPSRFSGSGSGTDFTLIISSLQPEDLATYYCQQSYSNPLTFGPGTKVDIR

>  <binding signal, bead assay (fold over isotype)>
592

$$$$
>  <BINDER>
antibody 366 (antibody, V domains shown) VH: QVQLVESGGGVVQPGRSLRLSCAASGFTFSSYAMHWVRQAPGKGLEWVAVISYDGSNKYYADSVKGRFTISRDNSKNTLYLQMNSLRAEDTAVYYCARGLVGYNWFDPWGQGTLVTVSS VL: DIQMTQSPSSVSASVGDRVTITCRASQGISSWLAWYQQKPGKAPKLLIYAASSLQSGVPSRFSGSGSGTDFTLTISSLQPEDFATYYCQQANSFTFGPGTKVDIK

>  <binding signal, bead assay (fold over isotype)>
553

$$$$
>  <BINDER>
antibody 367 (antibody, V domains shown) VH: QVQLVQSGAEVKKPGASVKVSCKASGYTFTGYYIHWVRQAPGQGLEWMGWINPNSGGTIYAQKFQGRVTMTRDTSISTAYMELSRLTSDDTAVYSCAREPYYDILTGYYAPRRYFDYWGQGTLVTVSS VL: QSALTQPASVSGSPGQSITISCTGTSSDVGSYNYVSWYLQHPGKAPKLMIYDVSNRPSGVSNRFSGSKSGNTASLTISGLQAEDEADFYCSSYTSRSTYVFGTGTKVTVL

>  <binding signal, bead assay (fold over isotype)>
1090

$$$$
